Would you mind telling me the reported AUC(0-inf) of each entry?
Experiment: Rat pharmacokinetic studies, intramuscular administration
Assay type: in vivo, male Sprague Dawley Rats
Conditions: male, Sprague Dawley, rat, plasma, im; 123 mg/kg, Sesame oil + 1% Benzyl Alcohol; read-out: AUC0-inf (ng · h/mL) prodrug
Give bare numbers, in ng·h/mL.

Kindly give each listed record's AUC(0-inf).
1. C=C1CC[C@@]2(O)C3Cc4ccc(OC(=O)OCCCCCCCCCCCC)c5c4[C@@]2(CCN3CC2CC2)[C@H]1O5 [Compound 6]
2. C=C1CC[C@@]2(O)C3Cc4ccc(OC(=O)CCCCCCC/C=C/CCCCCCCC)c5c4[C@@]2(CCN3CC2CC2)[C@H]1O5 [Compound 15]

1. 620
2. 2570
